Target: CYP3A (Homo sapiens, UniProt P08684)
Sequence (P08684 2-503): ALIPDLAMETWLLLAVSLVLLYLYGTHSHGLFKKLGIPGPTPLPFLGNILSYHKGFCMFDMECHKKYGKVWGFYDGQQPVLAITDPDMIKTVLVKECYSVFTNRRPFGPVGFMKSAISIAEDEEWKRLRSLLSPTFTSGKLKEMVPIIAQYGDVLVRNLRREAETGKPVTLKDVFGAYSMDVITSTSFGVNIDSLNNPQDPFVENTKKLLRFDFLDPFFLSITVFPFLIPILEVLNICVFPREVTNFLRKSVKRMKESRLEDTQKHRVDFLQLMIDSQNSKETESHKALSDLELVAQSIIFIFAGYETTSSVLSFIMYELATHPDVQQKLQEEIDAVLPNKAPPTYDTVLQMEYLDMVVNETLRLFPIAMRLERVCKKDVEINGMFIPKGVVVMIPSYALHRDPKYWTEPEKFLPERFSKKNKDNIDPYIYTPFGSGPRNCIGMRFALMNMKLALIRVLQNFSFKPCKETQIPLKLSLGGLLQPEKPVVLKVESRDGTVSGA
Experiment: Cytochrome P450 Inhibition (CYP panel)
Assay type: in vitro ADME
Details: liver microsomes, probe testosterone, CYP3A (testosterone sub.), Human liver microsomes, 10 μM, read-out: % Inhibition of Control Values
# maps each entry to its inhibition at 10 µM
measurement.kind: inhibition at 10 µM (%)

compound="CC(C)=CCC[C@@H]1C(O)Oc2c(C)cc(O)c3c2[C@H]1CC[C@H]3C (stereo partly drawn)" assay_target="CYP3A (Homo sapiens, UniProt P08684)" result_units=% readout_number=57
compound="CC(C)=CCC[C@H](CO)[C@@H]1CC[C@@H](C)c2c1cc(C)c(O)c2O [Compound 1, 7,8,18-trihydroxyserrulat-14-ene]" assay_target="CYP3A (Homo sapiens, UniProt P08684)" result_units=% readout_number=77
compound="CC(C)=CCC[C@H](C)[C@@H]1CC[C@@H](C)c2c1cc(C)c(O)c2O [Compound 4, 7,8-dihydroxyserrulat-14-ene]" assay_target="CYP3A (Homo sapiens, UniProt P08684)" result_units=% readout_number=48

====

Test system: 43 cancer cell lines and one normal cell line
Experiment: In vitro cell viability assay (intracellular ATP, 72 hour)
Assay type: cell-based
Settings: B16-F0 (Melanoma); 10 μM
measurement.kind: % Cell growth (%)

molecule="CC(C)=CCC[C@@H]1COc2c(C)cc(O)c3c2[C@H]1CC[C@H]3C [Compound 3, 5,18-epoxy-8-hydroxyserrulat-14-ene]" assay_target="43 cancer cell lines and one normal cell line" measurement_kind="% Cell growth" readout_number=116
molecule="CC(C)=CCC[C@H](CO)[C@@H]1CC[C@@H](C)c2c1cc(C)c(O)c2O [Compound 1, 7,8,18-trihydroxyserrulat-14-ene]" assay_target="43 cancer cell lines and one normal cell line" measurement_kind="% Cell growth" readout_number=7
molecule="CC(C)=CCC[C@@H]1C(O)Oc2c(C)cc(O)c3c2[C@H]1CC[C@H]3C (stereo partly shown) [Compound 2, 5,18-epoxyserrulat-14-en-8,18-diol]" assay_target="43 cancer cell lines and one normal cell line" measurement_kind="% Cell growth" readout_number=123
molecule="CC(C)=CCC[C@H](C)[C@@H]1CC[C@@H](C)c2c1cc(C)c(O)c2O [Compound 4, 7,8-dihydroxyserrulat-14-ene]" assay_target="43 cancer cell lines and one normal cell line" measurement_kind="% Cell growth" readout_number=56

====

Tested on: 280 human cancer cell lines
Experiment: OncoPanel cell proliferation assay (10-day)
Format: cell-based
Conditions: Homo sapiens, NCI-H446, NCIH446, Lung - SCLC; read-out: Cell Count EC50
measurement.kind: EC50

compound="CC(C)=CCC[C@H](CO)[C@@H]1CC[C@@H](C)c2c1cc(C)c(O)c2O [Compound 1, 7,8,18-trihydroxyserrulat-14-ene]" measurement_kind=EC50 result="10.3 µM"
compound="CC(C)=CCC[C@@H]1C(O)Oc2c(C)cc(O)c3c2[C@H]1CC[C@H]3C (stereo partly drawn)" measurement_kind=EC50 result="9.75 µM"
compound="CC(C)=CCC[C@H](C)[C@@H]1CC[C@@H](C)c2c1cc(C)c(O)c2O [Compound 4, 7,8-dihydroxyserrulat-14-ene]" measurement_kind=EC50 result="7.81 µM"

====

Target: CYP1A (Homo sapiens)
Sequence (P05177 1-516): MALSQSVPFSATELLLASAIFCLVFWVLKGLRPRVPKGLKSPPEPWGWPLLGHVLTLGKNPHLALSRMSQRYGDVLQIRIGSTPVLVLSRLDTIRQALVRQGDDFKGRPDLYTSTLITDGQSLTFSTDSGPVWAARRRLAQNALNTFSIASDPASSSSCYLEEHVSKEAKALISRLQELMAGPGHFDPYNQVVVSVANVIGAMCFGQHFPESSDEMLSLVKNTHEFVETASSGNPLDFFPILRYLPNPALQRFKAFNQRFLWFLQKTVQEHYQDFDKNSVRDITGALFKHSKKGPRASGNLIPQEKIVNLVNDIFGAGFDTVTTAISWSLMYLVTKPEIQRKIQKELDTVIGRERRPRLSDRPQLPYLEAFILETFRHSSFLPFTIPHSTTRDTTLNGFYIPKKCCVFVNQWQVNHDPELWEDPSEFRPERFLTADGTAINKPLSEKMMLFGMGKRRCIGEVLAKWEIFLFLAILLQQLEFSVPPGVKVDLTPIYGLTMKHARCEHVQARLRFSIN
Test: Cytochrome P450 Inhibition (CYP panel)
Type: in vitro ADME
Settings: human, human liver microsomes, probe phenacetin; 10 μM; read-out: % inhibition
Entries annotated with measured inhibition at 10 µM
measurement.kind: inhibition at 10 µM

compound="CC(C)=CCC[C@H](CO)[C@@H]1CC[C@@H](C)c2c1cc(C)c(O)c2O [Compound 1, 7,8,18-trihydroxyserrulat-14-ene]" result="63 to 92%"
compound="CC(C)=CCC[C@H](C)[C@@H]1CC[C@@H](C)c2c1cc(C)c(O)c2O [Compound 4, 7,8-dihydroxyserrulat-14-ene]" result="63 to 92%"
compound="CC(C)=CCC[C@@H]1C(O)Oc2c(C)cc(O)c3c2[C@H]1CC[C@H]3C (stereo partly drawn)" result="63 to 92%"

====

Parameter: IC50. Scope: all listed entries.
Biological target: ASH1L (h) bromodomain (Homo sapiens, UniProt Q9NR48)
Construct: ASH1L (h) bromodomain
Test: Epigenetic binding assay, Bromodomain
Details: Table 9, inhibition/concentration-response curve; read-out: IC50
measurement.kind: IC50

compound="Cc1sc2c(c1C)C(c1ccc(Cl)cc1)=N[C@@H](CC(=O)OC(C)(C)C)c1nnc(C)n1-2 [JQ-1, reference compound]" result="8.7 µM"
compound="CC(C)=CCC[C@H](CO)[C@@H]1CC[C@@H](C)c2c1cc(C)c(O)c2O [Compound 1, 7,8,18-trihydroxyserrulat-14-ene]" result="4.2 µM"

====

Tested on: SK-NEP-1 kidney
Experiment: OncoPanel cell proliferation assay (10-day)
Assay type: cell-based
Conditions: Homo sapiens; SK-NEP-1, Kidney; read-out: Cell Count EC50
pEC50: −log10 of the molar value.
The following compounds are shown together with reported pEC50 values.
measurement.kind: pEC50

compound="CC(C)=CCC[C@H](C)[C@@H]1CC[C@@H](C)c2c1cc(C)c(O)c2O [Compound 4, 7,8-dihydroxyserrulat-14-ene]" readout_number=5.02
compound="CC(C)=CCC[C@H](CO)[C@@H]1CC[C@@H](C)c2c1cc(C)c(O)c2O [Compound 1, 7,8,18-trihydroxyserrulat-14-ene]" readout_number=8.00
compound="CC(C)=CCC[C@@H]1C(O)Oc2c(C)cc(O)c3c2[C@H]1CC[C@H]3C (stereo partly drawn)" readout_number=7.22

====

Target: UTX (h) (Homo sapiens)
Sequence (O15550 whole entry): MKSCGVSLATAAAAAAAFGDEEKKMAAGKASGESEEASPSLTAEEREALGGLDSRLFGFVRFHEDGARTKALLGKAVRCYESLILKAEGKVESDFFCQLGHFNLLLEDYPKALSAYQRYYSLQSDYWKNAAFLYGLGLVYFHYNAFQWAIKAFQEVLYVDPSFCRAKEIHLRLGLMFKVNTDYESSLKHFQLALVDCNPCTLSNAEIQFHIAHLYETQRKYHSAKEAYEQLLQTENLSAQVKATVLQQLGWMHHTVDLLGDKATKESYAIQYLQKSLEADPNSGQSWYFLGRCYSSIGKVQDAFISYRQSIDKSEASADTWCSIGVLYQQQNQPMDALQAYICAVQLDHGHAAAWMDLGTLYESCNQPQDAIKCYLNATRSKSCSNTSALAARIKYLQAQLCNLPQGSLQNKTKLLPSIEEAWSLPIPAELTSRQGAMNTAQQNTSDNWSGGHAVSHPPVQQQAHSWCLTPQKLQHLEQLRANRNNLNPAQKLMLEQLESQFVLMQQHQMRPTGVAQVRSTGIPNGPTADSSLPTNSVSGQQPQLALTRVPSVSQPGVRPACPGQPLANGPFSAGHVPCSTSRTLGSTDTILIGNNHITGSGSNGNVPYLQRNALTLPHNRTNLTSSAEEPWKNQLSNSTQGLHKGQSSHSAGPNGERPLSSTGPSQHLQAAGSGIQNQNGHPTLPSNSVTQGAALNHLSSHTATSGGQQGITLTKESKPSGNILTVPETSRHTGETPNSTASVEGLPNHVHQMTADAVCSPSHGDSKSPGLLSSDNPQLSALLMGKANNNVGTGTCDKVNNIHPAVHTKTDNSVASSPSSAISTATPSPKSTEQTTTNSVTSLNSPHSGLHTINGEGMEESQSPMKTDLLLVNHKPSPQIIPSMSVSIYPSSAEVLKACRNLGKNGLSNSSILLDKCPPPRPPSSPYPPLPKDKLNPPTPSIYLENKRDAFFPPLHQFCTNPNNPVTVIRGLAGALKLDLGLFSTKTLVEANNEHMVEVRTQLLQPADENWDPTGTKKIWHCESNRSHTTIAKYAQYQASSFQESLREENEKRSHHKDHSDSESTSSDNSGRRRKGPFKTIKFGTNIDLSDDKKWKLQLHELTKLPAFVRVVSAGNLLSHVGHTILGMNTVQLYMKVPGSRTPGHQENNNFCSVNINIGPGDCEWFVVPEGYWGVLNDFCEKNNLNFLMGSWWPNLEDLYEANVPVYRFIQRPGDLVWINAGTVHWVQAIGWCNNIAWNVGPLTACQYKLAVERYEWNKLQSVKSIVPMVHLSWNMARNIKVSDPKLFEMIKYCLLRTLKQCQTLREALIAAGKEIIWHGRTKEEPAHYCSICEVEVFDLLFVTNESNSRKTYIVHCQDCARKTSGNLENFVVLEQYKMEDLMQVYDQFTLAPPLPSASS
measurement.kind: IC50 (µM)

molecule="CC(C)=CCC[C@H](CO)[C@@H]1CC[C@@H](C)c2c1cc(C)c(O)c2O [Compound 1, 7,8,18-trihydroxyserrulat-14-ene]" assay_target="UTX (h) (Homo sapiens)" measurement_kind=IC50 result_units=µM readout_number=6.7

====

Biological target: ATAD2A (h) bromodomain (Homo sapiens, UniProt Q6PL18)
Construct: Bromodomain
Sequence (Q6PL18 980-1092 limits assumed): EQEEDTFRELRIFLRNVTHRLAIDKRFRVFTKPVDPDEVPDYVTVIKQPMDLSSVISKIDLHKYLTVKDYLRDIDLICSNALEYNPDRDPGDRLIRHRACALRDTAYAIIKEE
Assay: Epigenetic binding assay, Bromodomain
Conditions: Table 4; read-out: Reference IC50
measurement.kind: IC50 (µM)

compound="Cc1sc2c(c1C)C(c1ccc(Cl)cc1)=N[C@@H](CC(=O)OC(C)(C)C)c1nnc(C)n1-2 [JQ-1, reference compound]" assay_target="ATAD2A (h) bromodomain (Homo sapiens, UniProt Q6PL18)" readout_number=70

====

Target: receptors (Bioprint panel) (Homo sapiens)
Sequence (P35348 whole entry): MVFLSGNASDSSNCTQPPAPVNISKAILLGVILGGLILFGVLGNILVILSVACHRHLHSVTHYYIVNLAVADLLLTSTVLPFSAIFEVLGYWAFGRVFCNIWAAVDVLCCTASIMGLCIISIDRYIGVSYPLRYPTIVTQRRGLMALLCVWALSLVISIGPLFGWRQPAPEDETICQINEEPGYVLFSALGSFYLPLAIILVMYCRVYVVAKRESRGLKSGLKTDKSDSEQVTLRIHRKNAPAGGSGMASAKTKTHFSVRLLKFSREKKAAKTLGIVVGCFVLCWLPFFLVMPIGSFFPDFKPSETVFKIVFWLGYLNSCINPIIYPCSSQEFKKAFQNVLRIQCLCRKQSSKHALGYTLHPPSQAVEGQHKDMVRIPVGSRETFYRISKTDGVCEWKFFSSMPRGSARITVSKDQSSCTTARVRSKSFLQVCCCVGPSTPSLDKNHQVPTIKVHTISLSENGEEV
pIC50: −log10 of the molar value.
measurement.kind: pIC50

compound="COc1cccc(OC)c1OCCNCC1COc2ccccc2O1 (stereo not shown) [WB 4101]" assay_target="receptors (Bioprint panel) (Homo sapiens)" readout_number=9.57

====

Target: CYP2C9 (Homo sapiens, UniProt P11712)
Construct: Human liver microsomes; from tissue; host or cells: human liver microsomes
Sequence (P11712 whole entry): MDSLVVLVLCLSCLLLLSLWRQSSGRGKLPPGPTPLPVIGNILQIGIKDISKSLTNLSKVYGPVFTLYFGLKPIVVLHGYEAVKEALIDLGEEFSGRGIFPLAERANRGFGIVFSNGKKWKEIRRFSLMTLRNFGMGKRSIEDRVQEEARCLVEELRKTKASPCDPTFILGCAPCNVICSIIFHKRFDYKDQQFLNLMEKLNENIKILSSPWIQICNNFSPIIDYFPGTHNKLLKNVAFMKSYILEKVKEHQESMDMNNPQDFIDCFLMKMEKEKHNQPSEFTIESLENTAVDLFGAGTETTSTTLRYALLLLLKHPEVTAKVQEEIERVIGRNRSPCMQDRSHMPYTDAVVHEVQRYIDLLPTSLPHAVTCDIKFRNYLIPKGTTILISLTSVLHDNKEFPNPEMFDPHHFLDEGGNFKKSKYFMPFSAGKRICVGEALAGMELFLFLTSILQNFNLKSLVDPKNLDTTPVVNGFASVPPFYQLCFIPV
Assay: Cytochrome P450 Inhibition (CYP panel)
Type: in vitro ADME
Conditions: human liver microsomes, probe diclofenac, 1 μM
measurement.kind: inhibition at 1 µM (%)

molecule="CC(C)=CCC[C@@H]1C(O)Oc2c(C)cc(O)c3c2[C@H]1CC[C@H]3C (stereo partly drawn) [Compound 2, 5,18-epoxyserrulat-14-en-8,18-diol]" measurement_kind="inhibition at 1 µM" readout_number=20
molecule="CC(C)=CCC[C@H](C)[C@@H]1CC[C@@H](C)c2c1cc(C)c(O)c2O [Compound 4, 7,8-dihydroxyserrulat-14-ene]" measurement_kind="inhibition at 1 µM" readout_number=31
molecule="CC(C)=CCC[C@H](CO)[C@@H]1CC[C@@H](C)c2c1cc(C)c(O)c2O [Compound 1, 7,8,18-trihydroxyserrulat-14-ene]" measurement_kind="inhibition at 1 µM" readout_number=5

====

Test system: 280 human cancer cell lines
Experiment: OncoPanel cell proliferation assay (10-day)
Type: cell-based
Conditions: Homo sapiens, MeWo, Skin (Melanoma); read-out: Cell Count EC50
measurement.kind: EC50 (µM)

molecule="CC(C)=CCC[C@@H]1C(O)Oc2c(C)cc(O)c3c2[C@H]1CC[C@H]3C (stereo partly drawn) [Compound 2, 5,18-epoxyserrulat-14-en-8,18-diol]" result_units=µM readout_number=9.45
molecule="CC(C)=CCC[C@H](CO)[C@@H]1CC[C@@H](C)c2c1cc(C)c(O)c2O [Compound 1, 7,8,18-trihydroxyserrulat-14-ene]" result_units=µM readout_number=1.32
molecule="CC(C)=CCC[C@H](C)[C@@H]1CC[C@@H](C)c2c1cc(C)c(O)c2O [Compound 4, 7,8-dihydroxyserrulat-14-ene]" result_units=µM readout_number=9.66
